These entries and their values trace back to patent US20080096903A1.

# TEST_TARGET: Hsp90α Protein (Homo sapiens, UniProt P07900)
# ASSAY_PROTOCOL: Hsp90 CE Competitive Binding Assay (displacement of fluorescein-labelled geldanamycin)
# MEASUREMENT_PARAMETERS: initial structure activity relationship table; read-out: HSP90 CE IC50
Would you kindly list pIC50 for each of these molecules?
# pIC50 = -log10(concentration in molar units)

Query for Hsp90α Protein (Homo sapiens, UniProt P07900): what pIC50 does the record show for Nc1nc(Cl)nc2c1ncn2C1OC(COS(N)(=O)=O)C(O)C1O (stereo not drawn) [CSA, 2-chloro-5′-sulfamoyladenosine, reference compound] ?
6.00

Query for Hsp90α Protein (Homo sapiens, UniProt P07900): what pIC50 does the record show for Nc1nc(F)nc2c1ncn2C1OC(COS(N)(=O)=O)C(O)C1O (stereo not drawn) [FSA, reference compound] ?
6.15
